Test system: PolR (Microlunatus phosphovorus NM-1), ORF:57668f7d
Sequence: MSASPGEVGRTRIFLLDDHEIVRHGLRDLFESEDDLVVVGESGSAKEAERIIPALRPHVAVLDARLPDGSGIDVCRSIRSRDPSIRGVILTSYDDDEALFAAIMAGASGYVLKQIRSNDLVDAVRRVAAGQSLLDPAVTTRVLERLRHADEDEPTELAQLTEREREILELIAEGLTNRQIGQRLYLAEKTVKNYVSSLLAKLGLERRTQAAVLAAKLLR
Assay: EMSA
Conditions: EMSA: 3.0 ug His-PolR, 1.0 ug poly(dI-dC), 8% native PAGE, buffer not given (cites Zhang 2014); footprinting: 30 min room temperature, DNase I 1 min 25 C
measurement.name: binding

seq.string: AGACGAGTGCTGCCGTGCACCGACTTCGCATCGGCGCCGCAACACAGTCCCCGCCCGTCGTTCGCTCGGCGTTCACCGGCGGGCCCTCGAGTCGTCAGAATGGCTGCCTAGCGTCTGGACCGGAGCCAGTGTCGCTCCTTACGTTCATTGCACGAGTCACACTCCGACAAGGGGAACGAGTGAAGAT (double strand) [pstS (MLP_RS23035) promoter]
system: PolR (Microlunatus phosphovorus NM-1), ORF:57668f7d
measurement.name: binding
endpoint.value: binds
//
seq.string: TGTGTCCCTTCCGTGAAACCTCGTCGGTGAAGTCTGGTGCGGGCGAGGGGAATCCCGCCCGGAGGGGAGGCTAAACCACCCAGGAGAATGAATGGAGTGTGGTGGCGCCTCGCGAGAATCCGAGCCGCTTCGGCGGATCGGCGCCCGAGGCTCCCTCCGGTGACAGCACGTTCACCCTGCC (double strand) [ppgk (MLP_RS12905) promoter]
system: PolR (Microlunatus phosphovorus NM-1), ORF:57668f7d
measurement.name: binding
endpoint.value: binds

---

Test system: PolR (Microlunatus phosphovorus NM-1), ORF:57668f7d
Sequence: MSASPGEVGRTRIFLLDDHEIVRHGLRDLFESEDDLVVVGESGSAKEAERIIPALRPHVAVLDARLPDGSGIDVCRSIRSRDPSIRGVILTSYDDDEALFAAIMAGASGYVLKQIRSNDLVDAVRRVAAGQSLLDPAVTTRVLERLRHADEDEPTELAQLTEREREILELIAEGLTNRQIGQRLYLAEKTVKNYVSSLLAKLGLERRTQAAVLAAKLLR
Assay: EMSA
Conditions: EMSA: 3.0 ug His-PolR, 1.0 ug poly(dI-dC), 8% native PAGE, buffer not given (cites Zhang 2014); footprinting: 30 min room temperature, DNase I 1 min 25 C
measurement.name: binding

seq.string: TTCGACCTCCGTATTCGGCTATTCGACTGTCCACCCTCTTCGTTACCACCGAGGGAGACACGTCACATTCACAACTCCCGGTCTGCGGATCAGACCAGCGATGCTGTCCGTGACTGCGGAAAGCTGACGACCGGAGACTGAGCGCCGGGGACCCGTTAACCCATTGTTCGCCCGGCA (double strand) [ppk2 (MLP_RS02760) promoter]
system: PolR (Microlunatus phosphovorus NM-1), ORF:57668f7d
endpoint.value: no binding
//
seq.string: TCGTCTCGGCAGCCCTTGGGTGAACTGTTCTCCGAGCGTGAGTAACGCCTCCGGGCGAGCGAGATGAACTGTTCGTGAATCCGCCGCCCGGGGGCCGTTCCAGGTGGATTTGACCGGTTTCGGAACCCCACGATGGTCGCGTGACCGAAGCTC (double strand) [pit (MLP_RS14415) promoter]
system: PolR (Microlunatus phosphovorus NM-1), ORF:57668f7d
endpoint.value: no binding
//
seq.string: CAGTTCACAGTCGCGATACTAGGTCGTAAGCCCGCCTCAAGTTGCCGCTCATGGGGTCGCCACACGCAGCTACAGGGAGGGTTCGGGCTGAGTTCACCCCTCGTTCACATCCGAACTTCGCCAGCCGGTCCATTTCGGGCATAGGCTCGAAGTCGAGCTTTTCTGATCAATCCCGAGGAATCC (double strand) [phoU (MLP_RS22885) promoter]
system: PolR (Microlunatus phosphovorus NM-1), ORF:57668f7d
endpoint.value: no binding
//
seq.string: TCGCTCTCGGTGTTGATCGATCCGGAGCGCCCGTCCAGACCCTGCACCGATCCGTCGAGGGTCGAGACGAAGTTGCTCCGGACGACCGGTCCGGAGCCGCCTTCGGGCCAGCGATAGAGATCGATCAGGTCTGCTCGGCTGAGCTCGGCGGATGGTCGAGGGTCCGCGTG (double strand) [pap (MLP_RS11265) promoter]
system: PolR (Microlunatus phosphovorus NM-1), ORF:57668f7d
endpoint.value: no binding
//
seq.string: TCAGCCATCTGGACAACCTATCGTCCACACCACACGAGATAGCCGAGTTGGTCAGGTATTGATGCGAGTTGGGGTCGAACGTCCCGTCAGATCCGGTTCGAACGCATCACCTTTGAGTGAAGGCTCATCCGACAACGGGGATCAGCACACTCCTAG (double strand) [ppk (MLP_RS23025) promoter]
system: PolR (Microlunatus phosphovorus NM-1), ORF:57668f7d
endpoint.value: binds

---

Test system: PolR (Microlunatus phosphovorus NM-1), ORF:57668f7d
Sequence: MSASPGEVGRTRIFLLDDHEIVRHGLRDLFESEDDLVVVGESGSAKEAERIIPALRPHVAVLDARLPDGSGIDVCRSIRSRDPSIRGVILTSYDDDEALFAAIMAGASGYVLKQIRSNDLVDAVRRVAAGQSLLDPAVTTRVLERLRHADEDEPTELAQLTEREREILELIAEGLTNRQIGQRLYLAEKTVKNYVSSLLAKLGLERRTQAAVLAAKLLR
Assay: EMSA
Conditions: EMSA: 3.0 ug His-PolR, 1.0 ug poly(dI-dC), 8% native PAGE, buffer not given (cites Zhang 2014); footprinting: 30 min room temperature, DNase I 1 min 25 C
measurement.name: binding

seq.string: GACAGCGATCACGGAGATCAGTAGCCAGTCCATGATTGATCTTCCCCTTGCACGGTCAACAACGACAACCCAATCGTCGTGCCATGAGATGGTCGGCCACACGGGTCTTTCGGCTCTATCTGGTCCTTCCTTCGTCACCGGGAGGGCCCGCCGCCGTTCACCCACCGTTCACTGTGCTGGTCG (double strand) [pit (MLP_RS00235) promoter]
endpoint.value: binds
